Test system: K562
assaySummary: Increase in the level of drug uptake in Dox-resistant K562 cells in presence of cyclosporine over its absence
Format: functional, cell-based
testSettings: Homo sapiens
Activity calls are given as the source filed them. The rule behind the calls is not given here.
Choose the fitting class; nothing outside active, inactive is accepted.

Please review the entries below; each comes with its answer.
smilesCode	classification
COc1cccc2c1C(=O)c1c(O)c3c(c(O)c1C2=O)C[C@@](O)(C(C)=O)C[C@@H]3O[C@H]1C[C@H](n2cc(CCCO)nn2)[C@H](O)[C@H](C)O1	inactive
COc1cccc2c1C(=O)c1c(O)c3c(c(O)c1C2=O)C[C@@](O)(C(C)=O)C[C@@H]3O[C@H]1C[C@H](n2cc(CCCCO)nn2)[C@H](O)[C@H](C)O1	inactive
COc1cccc2c1C(=O)c1c(O)c3c(c(O)c1C2=O)C[C@@](O)(C(C)=O)C[C@@H]3O[C@H]1C[C@H](N)[C@H](O)[C@H](C)O1	active
COc1cccc2c1C(=O)c1c(O)c3c(c(O)c1C2=O)C[C@@](O)(C(C)=O)C[C@@H]3O[C@H]1C[C@H](n2cc(CO)nn2)[C@H](O)[C@H](C)O1	inactive
COc1cccc2c1C(=O)c1c(O)c3c(c(O)c1C2=O)C[C@@](O)(C(C)=O)C[C@@H]3O[C@H]1C[C@H](n2cc(CCO)nn2)[C@H](O)[C@H](C)O1	inactive

## Task What outcome does the record of this test show for "COc1cccc2c1C(=O)c1c(O)c3c(c(O)c1C2=O)C[C@@](O)(C(C)=O)C[C@@H]3O[C@H]1C[C@H](N=[N+]=[N-])[C@H](O)[C@H](C)O1" ?
## Result inactive
